Test system: B-16 melanoma cells
Assay overview: Melanin production inhibiting effect on chromatophore (visual whiteness of cell pellets)
Format: cell-based
Parameters: key: −: Equal to solvent control (black); +: Slightly different from solvent control (dark gray); ++: Markedly different from solvent control (pale gray); +++: No coloring of cells (white)
Measurement setup: 6.2 ppm, 3 days culture with sample
Result type: whiteness of cell pellets, evaluated visually

Past entries and their recorded results:
CC(C)C(O)CCC1C(C)CCCC1(C)C (centres unmarked) [1^4′e]: +++
CC(C)CC(O)CCC1C(C)CCCC1(C)C (centres unmarked) [1^4′g]: +++
CCCC(O)C=CC1C(C)CCCC1(C)C (centres unmarked) [1″c]: +++
CC(=O)CCC1=C(C)CCCC1(C)C [Dihydro-β-ionone, dihydro-β-ionone, reference compound]: ++
CC(=O)/C=C/C1=C(C)CCCC1(C)C [β-Ionone, β-ionone, reference compound]: ++

I'm hoping you can list whiteness of cell pellets, evaluated visually for every compound here, please.
1. CC(C)CCCC(O)C=CC1C(C)CCCC1(C)C (centres unmarked) [Compound 1″k]
2. CC1CCCC(C)(C)C1C=CC(=O)C(C)(C)C (centres unmarked) [1′h]
3. CCCCCC(O)CCC1C(C)CCCC1(C)C (centres unmarked) [Compound 1^4′i]
4. CCCCCC(=O)C(C)=CC1C(C)CCCC1(C)C (centres unmarked) [1′x]
5. CCCC(O)CCC1C(C)CCCC1(C)C (centres unmarked) [1^4′c]
6. CCCCCCCC(O)CCC1C(C)CCCC1(C)C (centres unmarked) [Compound 1^4′m]

Solution:
1. +++
2. +++
3. +++
4. +++
5. +++
6. +

----------
Test system: B-16 melanoma cells
Assay overview: Melanin production inhibiting effect on chromatophore (visual whiteness of cell pellets)
Format: cell-based
Parameters: key: −: Equal to solvent control (black); +: Slightly different from solvent control (dark gray); ++: Markedly different from solvent control (pale gray); +++: No coloring of cells (white)
Measurement setup: 3.1 ppm, 3 days culture with sample
Result type: whiteness of cell pellets, evaluated visually

Here's what some known entries look like.
CC(C)CC(O)CCC1C(C)CCCC1(C)C (stereo not shown) [1^4′g]: +++
CC(C)CCCC(O)C=CC1C(C)CCCC1(C)C (stereo not shown) [Compound 1″k]: +++
CCCC(O)CCC1C(C)CCCC1(C)C (stereo not shown) [1^4′c]: ++
CC(C)C(O)CCC1C(C)CCCC1(C)C (stereo not shown) [1^4′e]: ++
CCCCCC(O)CCC1C(C)CCCC1(C)C (stereo not shown) [Compound 1^4′i]: +++
CC(=O)/C=C/C1=C(C)CCCC1(C)C [β-Ionone, β-ionone, reference compound]: +
OC[C@H]1O[C@@H](Oc2ccc(O)cc2)[C@H](O)[C@@H](O)[C@@H]1O [ARBUTIN, arbutin, reference compound]: −
CC(=O)CCC1=C(C)CCCC1(C)C [Dihydro-β-ionone, dihydro-β-ionone, reference compound]: +
CC(C)CC(=O)C=CC1C(C)CCCC1(C)C (stereo not shown) [1′g]: ++

Attention now shifts to the item below.
Recorded whiteness of cell pellets, evaluated visually for CCCCCCCC(O)CCC1C(C)CCCC1(C)C (stereo not shown) [Compound 1^4′m] on B-16 melanoma cells was +

----------
System: B-16 melanoma cells
Assay overview: Melanin production inhibiting effect on chromatophore (visual whiteness of cell pellets)
Assay type: cell-based
Design: key: −: Equal to solvent control (black); +: Slightly different from solvent control (dark gray); ++: Markedly different from solvent control (pale gray); +++: No coloring of cells (white)
Measurement setup: 3.1 ppm, 3 days culture with sample
Result type: whiteness of cell pellets, evaluated visually

Study these solved cases before continuing.
CC(C)=CCCC(O)C=CC1C(C)CCCC1(C)C (centres unmarked) [Compound 1″l]: +++
CC1CCCC(C)(C)C1C=CC(=O)C(C)(C)C (centres unmarked) [1′h]: ++
CC(C)=CCCC(=O)C=CC1C(C)CCCC1(C)C (centres unmarked) [Compound 1′l]: +++
CCCCCC(O)C=CC1C(C)CCCC1(C)C (centres unmarked) [Compound 1″i]: +++
CCCCCCCC(=O)C=CC1C(C)CCCC1(C)C (centres unmarked) [Compound 1′m]: +

Please report whiteness of cell pellets, evaluated visually for every entry that follows.
1. CC(O)CCC1C(C)CCCC1(C)C (centres unmarked) [Tetrahydroionol, tetrahydroionol, reference compound]
2. CCC(O)C(C)=CC1C(C)CCCC1(C)C (centres unmarked) [1″u]
3. CCCC(O)C=CC1C(C)CCCC1(C)C (centres unmarked) [1″c]
4. CCC(=O)C=CC1C(C)CCCC1(C)C (centres unmarked) [1′b]

Solution:
+
++
+++
++

Report whiteness of cell pellets, evaluated visually for each item below.
1. CC(C)CCCC(=O)C=CC1C(C)CCCC1(C)C (centres unmarked) [Compound 1′k]
2. CCCCCCCC(O)C=CC1C(C)CCCC1(C)C (centres unmarked) [Compound 1″m]

Solution:
+++
+
